The reported measurements were obtained from the supplement of paper PMC6555819.

# System: PPARg:RXRa 270nM:90nM, anti-RXR (NR concentration 270 nM, RXRa partner concentration 90 nM)
# experiment description: PBM binding z-score (relative to random genomic background probes); higher = stronger binding; sequences stand for … in GC…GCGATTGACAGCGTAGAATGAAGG
quantity kind: PBM binding z-score
Numbers only.

biosequence | PBM binding z-score
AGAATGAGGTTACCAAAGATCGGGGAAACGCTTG | 2.42
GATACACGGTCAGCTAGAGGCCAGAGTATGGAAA | -0.323
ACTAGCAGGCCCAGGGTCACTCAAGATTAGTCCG | 2.3

Working through the 6 sequences below one at a time, give PBM binding z-score for each.
1. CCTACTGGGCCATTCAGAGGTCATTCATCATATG
2. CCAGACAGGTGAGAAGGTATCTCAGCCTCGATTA
3. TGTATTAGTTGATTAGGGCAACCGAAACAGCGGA
4. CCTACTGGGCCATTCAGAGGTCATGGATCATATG
5. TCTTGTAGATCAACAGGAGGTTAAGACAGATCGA
6. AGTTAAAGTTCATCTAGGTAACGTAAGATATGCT

Result:
1. 3.3
2. -0.0698
3. 0.782
4. 3.6
5. 1.36
6. 4.99

Working through the 3 sequences below one at a time, give PBM binding z-score for each.
1. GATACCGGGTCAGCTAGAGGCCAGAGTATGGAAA
2. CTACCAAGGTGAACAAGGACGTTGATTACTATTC
3. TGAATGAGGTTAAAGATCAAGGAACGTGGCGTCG

Result:
2.42
0.636
6.53

---

# Test system: LXRa homodimer (NR concentration 270 nM)
# experiment description: PBM binding z-score (relative to random genomic background probes); higher = stronger binding; sequences stand for … in GC…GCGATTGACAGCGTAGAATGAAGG
Binary classification by PBM binding z-score, with -0.5 as an inclusive lower bound for Yes; all other cases are No.

biosequence | class
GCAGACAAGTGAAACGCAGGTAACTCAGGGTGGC | No

Request: Could you please find out whether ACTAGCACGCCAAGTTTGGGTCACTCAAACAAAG has PBM binding z-score that meets -0.5 or exceeds it?
Result: No

Request: Could you please find out whether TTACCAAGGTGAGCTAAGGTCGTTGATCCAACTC has PBM binding z-score that meets -0.5 or exceeds it?
Result: Yes

Request: Could you please find out whether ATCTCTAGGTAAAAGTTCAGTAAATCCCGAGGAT has PBM binding z-score that meets -0.5 or exceeds it?
Result: Yes

Request: Could you please find out whether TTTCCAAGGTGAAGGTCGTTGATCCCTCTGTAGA has PBM binding z-score that meets -0.5 or exceeds it?
Result: Yes

Request: Could you please find out whether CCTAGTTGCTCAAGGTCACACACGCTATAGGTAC has PBM binding z-score that meets -0.5 or exceeds it?
Result: Yes

---

For each of the sequences below, state its PBM binding z-score.
# Test system: LXRb homodimer (NR concentration 270 nM)
# experiment description: PBM binding z-score (relative to random genomic background probes); higher = stronger binding; sequences stand for … in GC…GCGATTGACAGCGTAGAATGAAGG
Answers are plain numbers.

Recorded PBM binding z-score, per entry:
biosequence | PBM binding z-score
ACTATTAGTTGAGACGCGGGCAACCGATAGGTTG | 0.193
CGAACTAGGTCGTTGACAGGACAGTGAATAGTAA | -0.626

Working through the 2 sequences below one at a time, give PBM binding z-score for each.
1. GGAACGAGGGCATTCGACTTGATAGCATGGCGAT
2. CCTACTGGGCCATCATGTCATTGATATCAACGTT

Result:
1. -0.467
2. -0.132
